Please provide measured pEC50 for the entries that follow.
assayed-system: T1, angiopoietin-2 (Ang2) (human, UniProt O15123 68-496, limits assumed)
T1 construct: Plain and biotinylated Ang2 are kept as one molecule; also called rhAng2; recombinant Ang2
T1 sequence (looked up): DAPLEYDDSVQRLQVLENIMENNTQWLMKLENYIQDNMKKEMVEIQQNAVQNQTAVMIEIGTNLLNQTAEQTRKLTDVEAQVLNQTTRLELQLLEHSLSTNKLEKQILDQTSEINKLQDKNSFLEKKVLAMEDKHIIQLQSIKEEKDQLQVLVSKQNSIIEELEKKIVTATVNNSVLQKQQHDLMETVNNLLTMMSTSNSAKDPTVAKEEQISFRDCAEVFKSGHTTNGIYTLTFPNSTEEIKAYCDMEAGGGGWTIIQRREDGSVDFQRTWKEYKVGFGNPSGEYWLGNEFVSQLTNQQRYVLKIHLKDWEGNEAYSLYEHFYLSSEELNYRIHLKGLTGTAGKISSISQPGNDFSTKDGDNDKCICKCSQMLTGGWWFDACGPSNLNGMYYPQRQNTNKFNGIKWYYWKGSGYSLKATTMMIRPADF
test-description: ELISA on rhAng2-coated wells, MRD-MBP fusion, anti-MBP detection; EC50 by 4 parameter fit
Where no end group is shown, it is not given here. MBP = maltose binding protein (MBP), fused to the peptide
One number for each entry, as −log10 of the molar value.

binder	property-name	numeric-result
{MBP}-PGSGGGSMGAQTNFMPMDNDELLLYEQFILQQGLE (other, not shown: small tags and cut ends, also: N-terminal MBP fusion, not in chain) [Lm32 KtoS-MBP fusion]	pEC50	9.70

Lab note: next binder to report on.
For reference, reported pEC50 for 2×Lm32-MBP fusion (other, not shown: small tags and cut ends, also called Lm32 dimer) peptide: PGKGGGSMGAQTNFMPMDNDELLLYEQFILQQGLEGGGSMGAQTNFMPMDNDELLLYEQFILQQGLE stands at 11.30
